Test system: B16V mouse melanoma cells
Assay: Depigmentation effect on melanoma cell cultures (inhibition of pigmentation)
Format: cell-based
Conditions: Mus musculus; B16V cells, 0.3 mM tyrosine + 10 nM α-MSH, 96 h, absorption at 400 nm
experimental-endpoint: pIC50
Lab note: report pIC50 as minus log10 of the concentration in molar units, number only.

> print(dat)
                                   compound  endpoint.result
1  C=C[C@@](C)(O)CC[C@H]1C(=C)C[C@H](O)[C@H]2C(C)(C)CCC[C@]12C             5.41

The recorded pIC50 for entry OC[C@H]1O[C@@H](Oc2ccc(O)cc2)[C@H](O)[C@@H](O)[C@@H]1O [beta-Arbutin, reference compound] equals 4.17
